Procedure Details: Toxicology study in the rat, s.c. Q3D for 28 days
Assay type: in vivo, Sprague Dawley rats
Experimental Parameters: male, Sprague Dawley, rat, in vivo, sc, 0.6 mg/kg, Day 31, male rats, NOAEL 0.6 mg/kg
Measurement Label: Cmax (ng/mL)
Answers are plain numbers, in ng/mL.

Quickly give me recorded Cmax for CO[C@@H]1[C@H](OC(=O)/C=C/c2ccc(OCCN(C)C)cc2)CC[C@]2(CO2)[C@H]1[C@@]1(C)O[C@@H]1CC=C(C)C [beloranib, reference compound]
8.17

* * *

Procedure Details: Protein binding in mouse plasma (dialysis)
Format: in vitro ADME
Experimental Parameters: All concentrations, read-out: % Bound (Mean) (converted)
Measurement Label: fraction unbound
One number for each entry.

Consider the molecule CO[C@@H]1[C@H](OC(=O)/C=C/c2ccc(OCCN(C)C)cc2)CC[C@]2(CO2)[C@H]1[C@@]1(C)O[C@@H]1CC=C(C)C [beloranib, reference compound] and give its recorded fraction unbound.
0.0213
